test system: HCC-2998 colon; assay: NCI tumour cell line growth inhibition, 48 h
Observable: TGI

INSERT INTO measurements (compound, experimental_target, measured_result) VALUES
  ('C=CCC1(O)CC(n2cc(C)c(=O)[nH]c2=O)OC1CO[Si](C)(C)C(C)(C)C (stereo not given)', 'HCC-2998 colon', '> 100 µM'),
  ('O=C1C=Cc2c(Br)sc(Br)c21', 'HCC-2998 colon', '29.2 µM'),
  ('O=C1N(Cl)C(=O)C(c2ccc(Cl)cc2)(c2ccc(Cl)cc2)N1Cl', 'HCC-2998 colon', '> 100 µM'),
  ('CSc1ccc(/C=C2\CN(C)C/C(=C\c3ccc(SC)cc3)C2=O)cc1', 'HCC-2998 colon', '> 100 µM'),
  ('COc1ccc(NC(=O)c2cc(OC)cc(OC)c2)cc1', 'HCC-2998 colon', '> 100 µM'),
  ('O=C(NCCNc1nccc(-c2c(-c3cccc(O)c3)nc3sccn23)n1)c1ccccc1O', 'HCC-2998 colon', '22.5 µM'),
  ('CCOC(=O)c1ncn2c1[nH]c(=S)c1ccccc12', 'HCC-2998 colon', '> 100 µM'),
  ('Cn1c2ccc([N+](=O)[O-])cc2c(=O)n1Cc1ccccc1F', 'HCC-2998 colon', '> 100 µM'),
  ('C[C@@H](CS(C)(=O)=O)Nc1ncc2cc(Oc3ccc(F)cc3F)c(=O)n(C)c2n1', 'HCC-2998 colon', '> 25 µM'),
  ('CC1(C)OC(=O)C(=Cc2ccc(O)cc2)C(=O)O1', 'HCC-2998 colon', '> 100 µM');

###

# TGI per entry
system: OVCAR-8 ovarian; assay: NCI tumour cell line growth inhibition, 48 h
Where a SMILES comes first, the peptide text is derived from it. [ ]: non-standard residue; d: D form. The star is where a group is joined. Boc = CC(C)(C)OC(=O)*; Lac = C[CH](O)C(=O)O; OBn = c1ccc(CO*)cc1
Observable: TGI

INSERT INTO assay_data (molecule, measured_result) VALUES
  ('CC(OC(=O)C(Cc1ccccc1)NC(=O)C(Cc1ccccc1)NC(=O)OC(C)(C)C)C(=O)OCc1ccccc1 (stereo not drawn) (Boc-Phe-Phe-[Lac]-OBn; configuration not given here)', '> 100 µM'),
  ('O=C(C1OC1c1ccc(Cl)cc1)C12CC3CC(CC(C3)C1)C2 (configuration not stated)', '32.9 µM'),
  ('C1=CC2(C=CC13O[C@H](C1CCCCC1)[C@@H](C1CCCCC1)O3)O[C@H](C1CCCCC1)[C@@H](C1CCCCC1)O2', '> 50 µM'),
  ('NS(=O)(=O)c1ccccc1C(=O)N/N=C(\c1nc2ccc([N+](=O)[O-])cc2[nH]c1=O)C(O)c1ccc([N+](=O)[O-])cc1 (configuration not stated)', '> 100 µM'),
  ('COc1ccc2c(c1)C(=O)/C(=C/c1ccc(OCC(=O)Nc3nccs3)cc1)O2', '> 60.5 µM'),
  ('c1ccc(C(C2=Nc3cccc4cccc(c34)N2)c2ccccc2)cc1', '> 100 µM'),
  ('Cc1ccc(Cc2n[nH]c(=O)[nH]2)cc1', '> 100 µM'),
  ('O=C(O)c1cc(C(=O)O)cc(N2C(=O)c3ccccc3C2=O)c1', '> 100 µM'),
  ('C=C1C[C@@H]2CC[C@@]34CC5O[C@H]6C(O[C@H]7CC[C@H](CC(=O)O[C@@H]8[C@@H](C)[C@@H]9O[C@@H]%10C[C@]%11(C[C@@H]%12O[C@]%13(C[C@H](C)[C@@H]%14O[C@@H]%15CC(C(O)CO)O[C@@H]%15C[C@@H]%14O%13)C[C@H](C)[C@@H]%12O%11)O[C@@H]%10C[C@@H]9O[C@H]8CC8O[C@@H](CC[C@@H]1O2)C[C@@H](C)C8(O)CO)O[C@@H]7[C@@H]6O3)[C@H]5O4 (some centres not stated)', '> 1 µM'),
  ('CCCCS(=O)(=O)CCC(N)P(=O)(O)O (configuration not stated)', '> 100 µM'),
  ('Oc1ccc(Cl)cc1-c1cc(-c2ccccc2Cl)[nH]n1', '> 100 µM'),
  ('NC(CCCCCCCCCCP(=O)(O)O)C(=O)O (configuration not stated)', '> 100 µM'),
  ('COc1cc2c(c(OC)c1O)C(=O)C(OC)C(c1ccc(O)c(O)c1)O2 (configuration not stated)', '> 100 µM'),
  ('O=C1c2ccccc2C(=O)c2sc(Nc3cccc(Cl)c3)nc21', '3.27 µM'),
  ('C1=CC2C=CC(C=C1)P2c1ccccc1 (configuration not stated)', '> 100 µM'),
  ('COc1ccc(NC(=S)Nc2cc(C)cc(C)n2)cc1', '> 100 µM'),
  ('COc1cc(-c2ccc(Br)[nH]2)[nH]c1C=NCC(C)C', '6.28 µM');
